- assayNotes: Toxicokinetics in Beagle dogs
- Assay type: in vivo
- cond: both sexes, Beagle, dog, plasma, po, 40 mg/kg/day, 40 mg/kg/day oral, 28 days
- Method: HZ1006 was administered orally to dogs (four/sex/group) at doses of 80, 40, 20, 5 and 0 (control) mg/kg/day, and the dosage volume was 2 mL/kg. The dogs received test doses with the exact amounts on a weekly basis based on current body weights. […] The other dogs in the above groups were dissected on the planned days. For the other groups, half of the dogs were anatomized on d28 and the remaining half on d42. […]
endpoint: AUC(0-inf)

smilesStructure: CCCCCCCNc1cc(/C=C/C(=O)NO)ccc1OCCN(CC)CC
endpoint: AUC(0-inf)
reading: 928 ng·h/mL

###

- assayNotes: Toxicokinetics in Beagle dogs
- Type: in vivo
- cond: both sexes, Beagle, dog, plasma, po, 40 mg/kg/day, 40 mg/kg/day oral, 14 days

smilesStructure: CCCCCCCNc1cc(/C=C/C(=O)NO)ccc1OCCN(CC)CC
Tmax [h]: 1.9

###

- assayNotes: Toxicokinetics in Beagle dogs
- Format: in vivo
- cond: both sexes, Beagle, dog, plasma, po, 5 mg/kg/day, 5 mg/kg/day oral, single
endpoint: half-life (min)

smilesStructure: CCCCCCCNc1cc(/C=C/C(=O)NO)ccc1OCCN(CC)CC
endpoint: half-life
reading: 264

###

- assayNotes: Toxicokinetics in Beagle dogs
- Format: in vivo
- cond: both sexes, Beagle, dog, plasma, po, 5 mg/kg/day, 5 mg/kg/day oral, 28 days

molecule: CCCCCCCNc1cc(/C=C/C(=O)NO)ccc1OCCN(CC)CC [HZ1006]
unitAbbrev: ng·h/mL
AUC(0-inf): 616

###

- assayNotes: Toxicokinetics in Beagle dogs
- Type: in vivo
- cond: both sexes, Beagle, dog, plasma, po, 40 mg/kg/day, 40 mg/kg/day oral, 28 days
endpoint: Tmax (h)

compound: CCCCCCCNc1cc(/C=C/C(=O)NO)ccc1OCCN(CC)CC [HZ1006]
unitAbbrev: h
reading: 2.2

###

- assayNotes: Toxicokinetics in Beagle dogs
- Type: in vivo
- cond: both sexes, Beagle, dog, in vivo, 40 mg/kg/day oral, single

smilesStructure: CCCCCCCNc1cc(/C=C/C(=O)NO)ccc1OCCN(CC)CC
Cmax [ng/mL]: 456

###

- assayNotes: Toxicokinetics in SD rats
- Format: in vivo, Sprague-Dawley (SD) rats
- cond: both sexes, Sprague-Dawley, rat, plasma, po, 60 mg/kg/day, SD rats, 60 mg/kg/day oral, single

smilesStructure: CCCCCCCNc1cc(/C=C/C(=O)NO)ccc1OCCN(CC)CC
half-life [h]: 6.83

###

- assayNotes: Toxicokinetics in Beagle dogs
- Format: in vivo
- cond: both sexes, Beagle, dog, plasma, po, 20 mg/kg/day, 20 mg/kg/day oral, single
endpoint: Cmax (ng/mL)

compound: CCCCCCCNc1cc(/C=C/C(=O)NO)ccc1OCCN(CC)CC [HZ1006]
endpoint: Cmax
unitAbbrev: ng/mL
reading: 139

###

- assayNotes: Toxicokinetics in SD rats
- Format: in vivo, Sprague-Dawley (SD) rats
- cond: both sexes, Sprague-Dawley, rat, plasma, po, 60 mg/kg/day, SD rats, 60 mg/kg/day oral, 28 days
endpoint: AUC(0-inf) (ng·h/mL)

molecule: CCCCCCCNc1cc(/C=C/C(=O)NO)ccc1OCCN(CC)CC [HZ1006]
endpoint: AUC(0-inf)
reading: 114

###

- assayNotes: Toxicokinetics in Beagle dogs
- Type: in vivo
- cond: both sexes, Beagle, dog, plasma, po, 20 mg/kg/day, 20 mg/kg/day oral, 28 days
- Protocol: HZ1006 was administered orally to dogs (four/sex/group) at doses of 80, 40, 20, 5 and 0 (control) mg/kg/day, and the dosage volume was 2 mL/kg. The dogs received test doses with the exact amounts on a weekly basis based on current body weights. […] The other dogs in the above groups were dissected on the planned days. For the other groups, half of the dogs were anatomized on d28 and the remaining half on d42. […]

smilesStructure: CCCCCCCNc1cc(/C=C/C(=O)NO)ccc1OCCN(CC)CC
unitAbbrev: h
half-life: 5.35

###

- assayNotes: Toxicokinetics in Beagle dogs
- Assay type: in vivo
- cond: both sexes, Beagle, dog, plasma, po, 40 mg/kg/day, 40 mg/kg/day oral, 28 days
endpoint: half-life

molecule: CCCCCCCNc1cc(/C=C/C(=O)NO)ccc1OCCN(CC)CC [HZ1006]
reading: 305 min

###

- assayNotes: Toxicokinetics in SD rats
- Format: in vivo, Sprague-Dawley (SD) rats
- cond: both sexes, Sprague-Dawley, rat, plasma, po, 60 mg/kg/day, SD rats, 60 mg/kg/day oral, single

compound: CCCCCCCNc1cc(/C=C/C(=O)NO)ccc1OCCN(CC)CC [HZ1006]
unitAbbrev: min
Tmax: 30

###

- assayNotes: Toxicokinetics in Beagle dogs
- Type: in vivo
- cond: both sexes, Beagle, dog, plasma, po, 20 mg/kg/day, 20 mg/kg/day oral, single
endpoint: Tmax (h)

smilesStructure: CCCCCCCNc1cc(/C=C/C(=O)NO)ccc1OCCN(CC)CC
unitAbbrev: h
reading: 3.5

###

- assayNotes: Toxicokinetics in SD rats
- Type: in vivo, Sprague-Dawley (SD) rats
- cond: both sexes, Sprague-Dawley, rat, plasma, po, 20 mg/kg/day, SD rats, 20 mg/kg/day oral, single

smilesStructure: CCCCCCCNc1cc(/C=C/C(=O)NO)ccc1OCCN(CC)CC
Cmax: 7.5 ng/mL

###

- assayNotes: Toxicokinetics in Beagle dogs
- Assay type: in vivo
- cond: both sexes, Beagle, dog, plasma, po, 80 mg/kg/day, 80 mg/kg/day oral, 14 days

molecule: CCCCCCCNc1cc(/C=C/C(=O)NO)ccc1OCCN(CC)CC [HZ1006]
unitAbbrev: ng/mL
Cmax: 174

###

- assayNotes: Toxicokinetics in Beagle dogs
- Assay type: in vivo
- cond: both sexes, Beagle, dog, plasma, po, 40 mg/kg/day, 40 mg/kg/day oral, single

smilesStructure: CCCCCCCNc1cc(/C=C/C(=O)NO)ccc1OCCN(CC)CC
unitAbbrev: h
Tmax: 2.7

###

- assayNotes: Toxicokinetics in SD rats
- Assay type: in vivo, Sprague-Dawley (SD) rats
- cond: both sexes, Sprague-Dawley, rat, plasma, po, 60 mg/kg/day, SD rats, 60 mg/kg/day oral, single

smilesStructure: CCCCCCCNc1cc(/C=C/C(=O)NO)ccc1OCCN(CC)CC
Cmax, ng/mL: 13.3

###

- assayNotes: Toxicokinetics in SD rats
- Type: in vivo, Sprague-Dawley (SD) rats
- cond: both sexes, Sprague-Dawley, rat, plasma, po, 60 mg/kg/day, SD rats, 60 mg/kg/day oral, single

smilesStructure: CCCCCCCNc1cc(/C=C/C(=O)NO)ccc1OCCN(CC)CC
AUC(0-inf) [ng·h/mL]: 39.1

###

- assayNotes: Toxicokinetics in SD rats
- Assay type: in vivo, Sprague-Dawley (SD) rats
- cond: both sexes, Sprague-Dawley, rat, plasma, po, 120 mg/kg/day, SD rats, 120 mg/kg/day oral, single

smilesStructure: CCCCCCCNc1cc(/C=C/C(=O)NO)ccc1OCCN(CC)CC
Cmax [ng/mL]: 20.4

###

- assayNotes: Toxicokinetics in Beagle dogs
- Assay type: in vivo
- cond: both sexes, Beagle, dog, plasma, po, 40 mg/kg/day, 40 mg/kg/day oral, 28 days

molecule: CCCCCCCNc1cc(/C=C/C(=O)NO)ccc1OCCN(CC)CC [HZ1006]
Cmax: 162 ng/mL

###

- assayNotes: Toxicokinetics in Beagle dogs
- Format: in vivo
- cond: both sexes, Beagle, dog, plasma, po, 20 mg/kg/day, 20 mg/kg/day oral, 14 days
endpoint: Tmax (h)

molecule: CCCCCCCNc1cc(/C=C/C(=O)NO)ccc1OCCN(CC)CC [HZ1006]
reading: 4

###

- assayNotes: Toxicokinetics in Beagle dogs
- Format: in vivo
- cond: both sexes, Beagle, dog, plasma, po, 80 mg/kg/day, 80 mg/kg/day oral, single

smilesStructure: CCCCCCCNc1cc(/C=C/C(=O)NO)ccc1OCCN(CC)CC
AUC(0-inf) / ng·h/mL: 3870

###

- assayNotes: Toxicokinetics in Beagle dogs
- Format: in vivo
- cond: both sexes, Beagle, dog, plasma, po, 20 mg/kg/day, 20 mg/kg/day oral, 28 days
- Description: HZ1006 was administered orally to dogs (four/sex/group) at doses of 80, 40, 20, 5 and 0 (control) mg/kg/day, and the dosage volume was 2 mL/kg. The dogs received test doses with the exact amounts on a weekly basis based on current body weights. […] The other dogs in the above groups were dissected on the planned days. For the other groups, half of the dogs were anatomized on d28 and the remaining half on d42. […]

smilesStructure: CCCCCCCNc1cc(/C=C/C(=O)NO)ccc1OCCN(CC)CC
AUC(0-inf) (ng·h/mL): 389

###

- assayNotes: Toxicokinetics in Beagle dogs
- Assay type: in vivo
- cond: both sexes, Beagle, dog, plasma, po, 5 mg/kg/day, 5 mg/kg/day oral, 28 days

compound: CCCCCCCNc1cc(/C=C/C(=O)NO)ccc1OCCN(CC)CC [HZ1006]
Cmax: 65.7 ng/mL
